Reported AC50 for target or system UniProt:P32245, by entry.
Sequence (P32245 whole entry): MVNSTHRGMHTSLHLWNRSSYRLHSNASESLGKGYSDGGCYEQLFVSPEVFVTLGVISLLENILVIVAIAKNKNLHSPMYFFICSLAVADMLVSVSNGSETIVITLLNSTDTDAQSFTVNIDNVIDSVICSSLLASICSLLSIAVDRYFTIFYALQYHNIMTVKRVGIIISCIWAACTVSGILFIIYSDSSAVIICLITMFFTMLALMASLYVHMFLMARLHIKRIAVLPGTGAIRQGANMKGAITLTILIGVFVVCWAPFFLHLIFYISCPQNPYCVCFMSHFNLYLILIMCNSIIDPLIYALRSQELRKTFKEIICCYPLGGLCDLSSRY

Some solved entries appear below for comparison.
| compound | value.type | test.result |
| --- | --- | --- |
| Nc1nc(F)nc2c1ncn2[C@@H]1O[C@H](COP(=O)(O)O)[C@@H](O)[C@@H]1O [FLUDARABINE PHOSPHATE] | AC50 | > 30 µM |
| O=C(Nc1nc(-c2cc(Cl)cs2)c(N2CCN(C3CCCCC3)CC2)s1)c1cnc(N2CCC(C(=O)O)CC2)c(Cl)c1 [AVATROMBOPAG] | AC50 | > 10 µM |

Please examine the following record next.
Ask: Lookup: AC50 / UniProt:P32245 / CC(=O)O[C@H]1C[C@@H]2CC[C@@H]3[C@H](CC[C@@]4(C)[C@H]3C[C@H]([N+]3(C)CCCCC3)[C@@H]4OC(C)=O)[C@@]2(C)C[C@@H]1[N+]1(C)CCCCC1 [PANCURONIUM]
Reply: > 10 µM

----------
Molecular target: Delta-type opioid receptor (Homo sapiens, UniProt P41143); also: assay procedure not described here
Sequence (P41143 whole entry): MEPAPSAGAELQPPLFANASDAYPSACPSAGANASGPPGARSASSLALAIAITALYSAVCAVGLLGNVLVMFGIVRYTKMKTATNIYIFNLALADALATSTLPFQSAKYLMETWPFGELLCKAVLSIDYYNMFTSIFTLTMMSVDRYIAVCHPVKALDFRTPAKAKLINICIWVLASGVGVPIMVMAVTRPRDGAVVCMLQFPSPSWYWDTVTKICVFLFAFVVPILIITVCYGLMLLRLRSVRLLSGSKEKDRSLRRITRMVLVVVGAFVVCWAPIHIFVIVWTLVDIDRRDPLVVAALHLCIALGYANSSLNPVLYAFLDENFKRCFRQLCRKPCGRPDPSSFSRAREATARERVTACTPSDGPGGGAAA
value.type: AC50

Ask: Lookup: AC50 / Delta-type opioid receptor (Homo sapiens, UniProt P41143) / C[C@]12CC[C@H](O)CC1=CC[C@@H]1[C@@H]2CC[C@]2(C)C(c3cccnc3)=CC[C@@H]12 [ABIRATERONE]
Reply: > 30 µM

Ask: Lookup: AC50 / Delta-type opioid receptor (Homo sapiens, UniProt P41143) / CC(CCc1ccccc1)NC(C)C(O)c1ccc(O)cc1 (stereo not given) [NYLIDRIN]
Reply: > 10 µM

----------
Reported AC50 for target or system Vasopressin V1a receptor (Homo sapiens, UniProt P37288), by entry. Also: assay procedure not described here.

Some solved entries appear below for comparison.
| molecule | AC50 |
| --- | --- |
| CCCCNc1ccc(C(=O)OCCN(C)C)cc1 | > 10 µM |
| CCc1oc2ccccc2c1C(=O)c1cc(Br)c(O)c(Br)c1 | > 30 µM |
| CC(=O)c1ccc2c(c1)N(CCCN1CCC(CCO)CC1)c1ccccc1S2 | > 30 µM |
| C#Cc1cccc(Nc2ncnc3cc(OCCOC)c(OCCOC)cc23)c1 | > 30 µM |
| COc1ccc2c(c1)[C@]13CCCC[C@@H]1[C@H](C2)N(C)CC3 | > 10 µM |
| COCCCOc1ccnc(C[S+]([O-])c2nc3ccccc3[nH]2)c1C (configuration not stated) | > 10 µM |

Ask: Could you tell me which AC50 is on file for NC(=O)CCC/N=C(\c1ccc(Cl)cc1)c1cc(F)ccc1O [PROGABIDE] ?
Reply: > 10 µM

----------
Reported AC50 for target or system Neuronal acetylcholine receptor subunit alpha-4 (Homo sapiens), by entry. Also: assay procedure not described here.

| compound | value.type | test.result |
| --- | --- | --- |
| CNCC[C@H](Oc1cccc2ccccc12)c1cccs1 | AC50 | > 10 µM |

Please examine the following record next.
Ask: Lookup: AC50 / Neuronal acetylcholine receptor subunit alpha-4 (Homo sapiens) / "O=C1NC(=O)C(c2ccccc2)(c2ccccc2)N1"
Reply: > 30 µM

----------
Molecular target: Prostaglandin G/H synthase 1 (Homo sapiens, UniProt P23219); also: assay procedure not described here
Sequence (P23219 whole entry): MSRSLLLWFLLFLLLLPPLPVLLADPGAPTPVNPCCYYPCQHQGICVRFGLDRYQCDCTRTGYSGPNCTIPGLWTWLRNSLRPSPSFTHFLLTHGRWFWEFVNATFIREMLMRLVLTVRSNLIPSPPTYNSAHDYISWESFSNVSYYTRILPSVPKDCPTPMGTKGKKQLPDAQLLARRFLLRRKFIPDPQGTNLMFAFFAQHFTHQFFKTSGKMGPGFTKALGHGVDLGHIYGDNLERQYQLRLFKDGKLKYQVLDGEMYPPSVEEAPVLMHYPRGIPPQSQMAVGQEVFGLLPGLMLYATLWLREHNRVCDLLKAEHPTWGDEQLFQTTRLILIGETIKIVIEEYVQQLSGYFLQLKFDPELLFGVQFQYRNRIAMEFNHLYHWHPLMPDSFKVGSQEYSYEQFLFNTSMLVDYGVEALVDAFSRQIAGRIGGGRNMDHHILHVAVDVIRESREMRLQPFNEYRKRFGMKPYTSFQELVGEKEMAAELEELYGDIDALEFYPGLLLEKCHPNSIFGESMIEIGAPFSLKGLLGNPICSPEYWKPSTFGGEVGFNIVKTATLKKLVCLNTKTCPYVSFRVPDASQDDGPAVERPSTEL
Assay type: functional
value.type: AC50

| molecule | test.result |
| --- | --- |
| NC(=O)NS(=O)(=O)c1ccc(N)cc1 [SULFACARBAMIDE] | > 30 µM |
| NCCc1ccc(O)cc1 [TYRAMINE] | > 3 µM |
| CC(C1=C(CCN(C)C)Cc2ccccc21)c1ccccn1 (stereo not drawn) | 19.4 µM |
| CN1CCC[C@@H]1Cc1c[nH]c2ccc(CCS(=O)(=O)c3ccccc3)cc12 | > 30 µM |
| CO[C@H]1/C=C/O[C@@]2(C)Oc3c(C)c(O)c4c(O)c(cc(O)c4c3C2=O)NC(=O)/C(C)=C\C=C\[C@H](C)[C@H](O)[C@@H](C)[C@@H](O)[C@@H](C)[C@H](OC(C)=O)[C@@H]1C [RIFAMYCIN] | 28.7 µM |
| C#C[C@]1(O)CC[C@H]2[C@@H]3CCC4=C(CCC(=O)C4)[C@H]3CC[C@@]21C [NORETHYNODREL] | > 30 µM |
| CCCCOc1ccc(CC(=O)NO)cc1 [BUFEXAMAC] | > 30 µM |
| C[C@H]1O[C@@H](O[C@H]2[C@@H](O)C[C@H](O[C@H]3[C@@H](O)C[C@H](O[C@H]4CC[C@@]5(C)[C@H](CC[C@@H]6[C@@H]5CC[C@]5(C)[C@@H](C7=CC(=O)OC7)CC[C@]65O)C4)O[C@@H]3C)O[C@@H]2C)C[C@H](O)[C@@H]1O [DIGITOXIN] | > 30 µM |

Ask: Could you tell me which AC50 is on file for O=C(O)c1cc(=O)c2ccccc2o1 [CHROMOCARB] ?
Reply: > 30 µM

Ask: Could you tell me which AC50 is on file for Cc1nnc(SCC2=C(C(=O)O)N3C(=O)[C@@H](NC(=O)Cn4cc(Cl)c(=O)c(Cl)c4)[C@H]3SC2)s1 [CEFAZEDONE] ?
Reply: 24.8 µM

Ask: Could you tell me which AC50 is on file for CCC(=O)O[C@@H](O[P@](=O)(CCCCc1ccccc1)CC(=O)N1C[C@H](C2CCCCC2)C[C@H]1C(=O)O)C(C)C [FOSINOPRIL] ?
Reply: > 30 µM

Ask: Could you tell me which AC50 is on file for "COc1nccnc1NS(=O)(=O)c1ccc(N)cc1" ?
Reply: > 30 µM

Ask: Could you tell me which AC50 is on file for COc1cc([C@@H]2c3cc4c(cc3[C@@H](O[C@@H]3O[C@@H]5CO[C@@H](c6cccs6)O[C@H]5[C@H](O)[C@H]3O)[C@H]3COC(=O)[C@H]23)OCO4)cc(OC)c1O [TENIPOSIDE] ?
Reply: > 30 µM
